Please respond with reported T1/2 for every item in the list.
# Species on record: Homo sapiens
# assay_info: Ester prodrugs: T1/2 in human plasma
# Type: ADME
# test_context: human, in vitro
Give bare numbers, in min.

Example entries begin here.
>  <molecule>
CC(=O)Nc1ccc(OC(=O)c2cccc(CN3CCOCC3)c2)cc1

>  <measurement_name>
T1/2

>  <experimental_result>
56

$$$$
>  <molecule>
CN1CCN(Cc2cccc(C(=O)OCC(NC(=O)C(Cl)Cl)C(O)c3ccc([N+](=O)[O-])cc3)c2)CC1 (stereo not drawn)

>  <measurement_name>
T1/2

>  <experimental_result>
5

$$$$
>  <molecule>
Cc1ncc([N+](=O)[O-])n1CCOC(=O)c1ccc(CN2CCN(C)CC2)cc1

>  <measurement_name>
T1/2

>  <experimental_result>
2.4

$$$$
>  <molecule>
CCN(CC)Cc1cccc(C(=O)OCC(=O)[C@@]2(O)CCC3C4CCC5=CC(=O)CCC5(C)C4C(O)CC32C)c1 (stereo partly drawn)

>  <measurement_name>
T1/2

>  <experimental_result>
34

$$$$
>  <molecule>
Cc1ncc([N+](=O)[O-])n1CCOC(=O)c1cccc(CN2CCN(C)CC2)c1

>  <measurement_name>
T1/2

>  <experimental_result>
0.6

$$$$

The following molecules each have a reported value; give each one's T1/2.
1. CC(=O)Nc1ccc(OC(=O)c2ccc(CN3CCN(C)CC3)cc2)cc1
2. CC12CCC(=O)C=C1CCC1C2C(O)CC2(C)C1CC[C@]2(O)C(=O)COC(=O)c1cccc(CN2CCOCC2)c1 (stereo partly drawn)
3. O=C(OCC(NC(=O)C(Cl)Cl)C(O)c1ccc([N+](=O)[O-])cc1)c1cccc(CN2CCOCC2)c1 (stereo not drawn)

487
62
55

Hi! Can you tell me T1/2 for each of these molecules?
1. C[C@H]1CC2C(C(O)CC3(C)C2CC[C@]3(O)C(=O)COC(=O)c2cccc(CN(C)CCN(C)C)c2)C2(C)C=CC(=O)C=C12 (stereo partly drawn)
2. Cn1c(=O)c2c(ncn2COC(=O)c2cccc(CN3CCOCC3)c2)n(C)c1=O
3. CN1CCN(Cc2cccc(C(=O)OCC(=O)[C@@]3(O)CCC4C5CCC6=CC(=O)C=CC6(C)C5C(O)CC43C)c2)CC1 (stereo partly drawn)
4. CN1CCN(Cc2cccc(C(=O)OCN3C(=O)NC(c4ccccc4)(c4ccccc4)C3=O)c2)CC1

1: 18; 2: 2.8; 3: 18; 4: 7

----------
Could you please report measured log10 T1/2 for the items listed next?
# Organism: Homo sapiens
# assay_info: Ester prodrugs: T1/2 in human plasma
# Format: ADME
# test_context: human, in vitro
Scale type: logarithmic (base 10). Underlying T1/2 unit: min.

Give me log10 T1/2 for each of these compounds, listed below.
1. CCN(CC)Cc1ccc(C(=O)OCC(=O)[C@@]2(O)CCC3C4CCC5=CC(=O)CCC5(C)C4C(O)CC32C)cc1 (stereo partly specified)
2. Cc1ncc([N+](=O)[O-])n1CCOC(=O)c1ccc(CN(C)C)cc1
3. Cc1ncc([N+](=O)[O-])n1CCOC(=O)c1ccc(CN2CCOCC2)cc1
4. CN1CCN(Cc2cccc(C(=O)OCn3cnc4c3c(=O)n(C)c(=O)n4C)c2)CC1
5. CN(C)Cc1ccc(C(=O)OCn2ncc3c(=O)[nH]cnc32)cc1
6. CN1CCN(Cc2ccc(C(=O)OCC(=O)[C@@]3(O)CCC4C5CCC6=CC(=O)CCC6(C)C5C(O)CC43C)cc2)CC1 (stereo partly specified)

1. 2.03
2. 0.67
3. -0.40
4. -0.40
5. 0.97
6. 2.17

Where do the numbers come from? From ChEMBL document CHEMBL1124371.
